target: Beta-secretase 1 (Homo sapiens)
Sequence (P56817 whole entry): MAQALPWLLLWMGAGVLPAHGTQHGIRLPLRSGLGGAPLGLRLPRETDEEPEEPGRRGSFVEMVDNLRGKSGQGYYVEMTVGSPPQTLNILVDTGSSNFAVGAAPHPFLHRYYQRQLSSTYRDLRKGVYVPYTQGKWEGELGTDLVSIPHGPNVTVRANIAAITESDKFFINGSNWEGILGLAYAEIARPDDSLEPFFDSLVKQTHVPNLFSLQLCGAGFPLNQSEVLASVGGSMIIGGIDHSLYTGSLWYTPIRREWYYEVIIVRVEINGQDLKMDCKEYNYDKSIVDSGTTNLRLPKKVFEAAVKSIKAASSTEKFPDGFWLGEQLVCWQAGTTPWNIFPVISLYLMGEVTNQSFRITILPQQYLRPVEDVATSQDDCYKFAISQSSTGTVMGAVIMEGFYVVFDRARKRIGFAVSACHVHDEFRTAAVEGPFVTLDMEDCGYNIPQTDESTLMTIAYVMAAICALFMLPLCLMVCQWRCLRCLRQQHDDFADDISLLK
Measurement kind: IC50 (µM)
Answers are plain numbers, in µM.

Worked cases, answers included:
{"Smiles code": "COc1cccc2cc(CN(CCCCCCNc3c4c(nc5ccccc35)CCCC4)Cc3cc4cccc(OC)c4o3)oc12", "IC50 (µM)": 0.19}
{"Smiles code": "c1ccc2oc(CNCCCCCCCNc3c4c(nc5ccccc35)CCCC4)cc2c1", "IC50 (µM)": 1.35}
{"Smiles code": "c1ccc2oc(CN(CCCCCCCNc3c4c(nc5ccccc35)CCCC4)Cc3cc4ccccc4o3)cc2c1", "IC50 (µM)": 0.62}

From here, focus on the item given below.
Query :: Look at this molecule and give its reported IC50. "COc1cccc2cc(C(=O)NCCCCCCCNc3c4c(nc5ccccc35)CCCC4)oc12"
Result :: 0.43

* * *

target: Amyloid-beta precursor protein (Homo sapiens, UniProt P05067); conditions: at 10 µM
Sequence (P05067 whole entry): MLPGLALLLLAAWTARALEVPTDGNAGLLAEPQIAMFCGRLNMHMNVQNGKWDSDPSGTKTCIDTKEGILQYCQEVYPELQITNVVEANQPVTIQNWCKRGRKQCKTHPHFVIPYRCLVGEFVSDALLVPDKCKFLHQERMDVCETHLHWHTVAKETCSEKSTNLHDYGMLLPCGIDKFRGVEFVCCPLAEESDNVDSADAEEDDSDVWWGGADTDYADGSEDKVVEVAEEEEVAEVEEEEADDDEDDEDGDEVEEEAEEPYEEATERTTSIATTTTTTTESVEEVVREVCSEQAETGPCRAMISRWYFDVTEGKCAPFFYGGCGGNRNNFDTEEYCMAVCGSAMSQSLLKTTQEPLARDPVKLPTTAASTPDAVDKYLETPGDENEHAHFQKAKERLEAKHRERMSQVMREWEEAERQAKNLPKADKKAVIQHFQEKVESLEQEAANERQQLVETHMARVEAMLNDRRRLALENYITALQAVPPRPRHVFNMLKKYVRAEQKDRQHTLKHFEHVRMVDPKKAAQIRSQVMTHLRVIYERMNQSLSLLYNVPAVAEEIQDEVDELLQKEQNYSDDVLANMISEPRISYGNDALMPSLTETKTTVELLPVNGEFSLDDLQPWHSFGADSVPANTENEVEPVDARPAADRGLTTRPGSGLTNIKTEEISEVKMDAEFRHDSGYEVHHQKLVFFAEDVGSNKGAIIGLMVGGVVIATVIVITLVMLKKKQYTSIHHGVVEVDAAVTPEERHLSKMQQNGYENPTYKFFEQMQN
Description: Inhibition of HFIP pretreated Amyloid beta (1 to 42) (unknown origin) self-induced aggregation at 10 uM incubated for 24 hrs by Thioflavin T-based fluorometric assay
Measurement kind: inhibition

{"Smiles code": "O=C(NCCCCCCNc1c2c(nc3ccccc13)CCCC2)c1cc2ccccc2o1", "Result": "13.7%"}
{"Smiles code": "O=C(NCCCCCCCNc1c2c(nc3ccccc13)CCC2)c1cc2ccccc2o1", "Result": "10.2%"}
{"Smiles code": "COc1cccc2cc(CNCCCCCCCNc3c4c(nc5ccccc35)CCCCC4)oc12", "Result": "31.9%"}
{"Smiles code": "c1ccc2oc(CNCCCCCCCNc3c4c(nc5ccccc35)CCCC4)cc2c1", "Result": "61.3%"}
{"Smiles code": "O=C(NCCCCCCNc1c2c(nc3ccccc13)CCC2)c1cc2ccccc2o1", "Result": "18.7%"}
{"Smiles code": "COc1cccc2cc(CN(CCCCCCCNc3c4c(nc5ccccc35)CCCCC4)Cc3cc4cccc(OC)c4o3)oc12", "Result": "37.3%"}
{"Smiles code": "COc1cccc2cc(C(=O)NCCCCCCCNc3c4c(nc5ccccc35)CCCCC4)oc12", "Result": "17.7%"}
{"Smiles code": "COc1cccc2cc(C(=O)NCCCCCCNc3c4c(nc5ccccc35)CCCC4)oc12", "Result": "40.2%"}
{"Smiles code": "O=C(NCCCCCCCNc1c2c(nc3ccccc13)CCCC2)c1cc2ccccc2o1", "Result": "26.2%"}

Query :: Look at this compound and give its reported inhibition. "COc1cccc2cc(C(=O)NCCCCCCCNc3c4c(nc5ccccc35)CCC4)oc12"
Result :: 19.6%

* * *

molecular target: Acetylcholinesterase (Homo sapiens)
Measurement kind: pIC50
One number for each entry, as −log10 of the molar value.

Worked cases, answers included:
{"Smiles code": "c1ccc2oc(CN(CCCCCCNc3c4c(nc5ccccc35)CCC4)Cc3cc4ccccc4o3)cc2c1", "pIC50": 5.68}
{"Smiles code": "O=C(NCCCCCCCNc1c2c(nc3ccccc13)CCC2)c1cc2ccccc2o1", "pIC50": 7.31}
{"Smiles code": "COc1cccc2cc(CNCCCCCCCNc3c4c(nc5ccccc35)CCCCC4)oc12", "pIC50": 8.59}
{"Smiles code": "c1ccc2oc(CNCCCCCCCNc3c4c(nc5ccccc35)CCCC4)cc2c1", "pIC50": 9.07}
{"Smiles code": "COc1cccc2cc(CNCCCCCCNc3c4c(nc5ccccc35)CCCC4)oc12", "pIC50": 7.82}
{"Smiles code": "COc1cccc2cc(C(=O)NCCCCCCNc3c4c(nc5ccccc35)CCC4)oc12", "pIC50": 5.77}
{"Smiles code": "O=C(NCCCCCCNc1c2c(nc3ccccc13)CCCCC2)c1cc2ccccc2o1", "pIC50": 6.51}

From here, focus on the item given below.
Query :: What reported pIC50 corresponds to "COc1cccc2cc(C(=O)NCCCCCCCNc3c4c(nc5ccccc35)CCCC4)oc12" on Acetylcholinesterase (Homo sapiens)?
Result :: 7.35

* * *

target: UniProt:P04058; test: Noncompetitive inhibition of Torpedo californica AChE using ATCh as substrate preincubated for 90 mins followed by substrate addition by potentiometric titration method; design: species or system Tetronarce californica
Sequence (P04058 whole entry): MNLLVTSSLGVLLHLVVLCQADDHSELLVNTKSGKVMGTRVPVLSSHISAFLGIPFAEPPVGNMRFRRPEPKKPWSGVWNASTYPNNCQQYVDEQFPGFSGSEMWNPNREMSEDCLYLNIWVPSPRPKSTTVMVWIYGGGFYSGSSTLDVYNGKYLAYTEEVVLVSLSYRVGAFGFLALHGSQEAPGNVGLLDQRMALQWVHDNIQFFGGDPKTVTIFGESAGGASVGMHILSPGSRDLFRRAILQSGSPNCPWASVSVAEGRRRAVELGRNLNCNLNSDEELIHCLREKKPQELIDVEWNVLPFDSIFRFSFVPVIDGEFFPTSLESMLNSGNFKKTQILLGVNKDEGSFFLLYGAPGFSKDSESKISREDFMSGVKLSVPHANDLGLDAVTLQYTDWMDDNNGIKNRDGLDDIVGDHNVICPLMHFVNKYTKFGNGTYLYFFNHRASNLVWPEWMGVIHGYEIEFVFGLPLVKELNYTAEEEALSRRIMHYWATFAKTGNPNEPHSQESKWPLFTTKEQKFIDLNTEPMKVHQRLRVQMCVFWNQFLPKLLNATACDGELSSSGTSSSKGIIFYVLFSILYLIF
Measurement kind: Ki (nM)
Numbers only, in nM.

Query :: Look at this compound and give its reported Ki. "c1ccc2oc(CNCCCCCCCNc3c4c(nc5ccccc35)CCCC4)cc2c1"
Result :: 2.1

* * *

Record type: IC50 measurement. Applies to: Acetylcholinesterase (Homo sapiens, UniProt P22303)
Answers are plain numbers, in nM.

Worked cases, answers included:
{"Smiles code": "COc1cccc2cc(CN(CCCCCCCNc3c4c(nc5ccccc35)CCCCC4)Cc3cc4cccc(OC)c4o3)oc12", "Assay system": "Acetylcholinesterase (Homo sapiens, UniProt P22303)", "IC50, nM": 199}
{"Smiles code": "c1ccc2oc(CNCCCCCCCNc3c4c(nc5ccccc35)CCC4)cc2c1", "Assay system": "Acetylcholinesterase (Homo sapiens, UniProt P22303)", "IC50, nM": 10.8}
{"Smiles code": "c1ccc2oc(CN(CCCCCCCNc3c4c(nc5ccccc35)CCCCC4)Cc3cc4ccccc4o3)cc2c1", "Assay system": "Acetylcholinesterase (Homo sapiens, UniProt P22303)", "IC50, nM": 200}
{"Smiles code": "COc1cccc2cc(CN(CCCCCCNc3c4c(nc5ccccc35)CCCCC4)Cc3cc4cccc(OC)c4o3)oc12", "Assay system": "Acetylcholinesterase (Homo sapiens, UniProt P22303)", "IC50, nM": 1040}
{"Smiles code": "c1ccc2oc(CNCCCCCCNc3c4c(nc5ccccc35)CCC4)cc2c1", "Assay system": "Acetylcholinesterase (Homo sapiens, UniProt P22303)", "IC50, nM": 47}

List the reported IC50 of each compound below.
1. O=C(NCCCCCCCNc1c2c(nc3ccccc13)CCCCC2)c1cc2ccccc2o1
2. COc1cccc2cc(C(=O)NCCCCCCCNc3c4c(nc5ccccc35)CCC4)oc12
3. O=C(NCCCCCCCNc1c2c(nc3ccccc13)CCCC2)c1cc2ccccc2o1
4. c1ccc2oc(CN(CCCCCCCNc3c4c(nc5ccccc35)CCCC4)Cc3cc4ccccc4o3)cc2c1

Result ::
323
993
76.9
117

* * *

molecular target: UniProtKB P56817; assay: Inhibition of BACE-1 (unknown origin) using M-2420 as substrate preincubated for 1 hr followed by substrate addition measured after 15 mins by FRET assay
Measurement kind: IC50 (µM)
Give bare numbers, in µM.

Query :: Look at this compound and give its reported IC50. NC1=NC(c2ccc(F)cc2)NC(=O)N1 (stereo unspecified)
Result :: 18

* * *

Please respond with reported pIC50 for every item in the list.
target: Acetylcholinesterase (Homo sapiens, UniProt P22303)
Sequence (P22303 whole entry): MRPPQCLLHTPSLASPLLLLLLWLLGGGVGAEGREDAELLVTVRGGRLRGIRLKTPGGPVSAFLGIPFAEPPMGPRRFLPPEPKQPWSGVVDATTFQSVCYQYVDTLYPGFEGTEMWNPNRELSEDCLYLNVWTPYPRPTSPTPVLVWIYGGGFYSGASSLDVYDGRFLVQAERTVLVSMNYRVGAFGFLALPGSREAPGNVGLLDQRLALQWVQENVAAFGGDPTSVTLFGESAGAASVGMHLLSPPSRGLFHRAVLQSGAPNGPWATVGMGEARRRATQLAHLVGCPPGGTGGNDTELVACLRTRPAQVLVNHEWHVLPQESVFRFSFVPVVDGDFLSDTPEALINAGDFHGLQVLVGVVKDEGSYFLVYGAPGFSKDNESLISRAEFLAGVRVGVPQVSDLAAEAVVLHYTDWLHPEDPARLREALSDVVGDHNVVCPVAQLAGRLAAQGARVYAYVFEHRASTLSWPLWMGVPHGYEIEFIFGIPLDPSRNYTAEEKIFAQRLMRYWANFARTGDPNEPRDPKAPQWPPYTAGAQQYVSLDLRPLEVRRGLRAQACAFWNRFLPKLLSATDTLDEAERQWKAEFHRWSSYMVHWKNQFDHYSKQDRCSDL
One number for each entry, as −log10 of the molar value.

{"Smiles code": "O=C(NCCCCCCNc1c2c(nc3ccccc13)CCCC2)c1cc2ccccc2o1", "pIC50": 6.37}

List the reported pIC50 of each compound below.
1. COc1cccc2cc(C(=O)NCCCCCCNc3c4c(nc5ccccc35)CCCC4)oc12
2. COc1cccc2cc(CNCCCCCCNc3c4c(nc5ccccc35)CCC4)oc12
3. COc1cccc2cc(CN(CCCCCCNc3c4c(nc5ccccc35)CCC4)Cc3cc4cccc(OC)c4o3)oc12
4. COc1cccc2cc(C(=O)NCCCCCCCNc3c4c(nc5ccccc35)CCCCC4)oc12
5. COc1cccc2cc(C(=O)NCCCCCCNc3c4c(nc5ccccc35)CCCCC4)oc12
6. O=C(NCCCCCCNc1c2c(nc3ccccc13)CCC2)c1cc2ccccc2o1
7. COc1cccc2cc(CN(CCCCCCNc3c4c(nc5ccccc35)CCCC4)Cc3cc4cccc(OC)c4o3)oc12

Result ::
1. 7.61
2. 7.20
3. 5.13
4. 6.38
5. 7.49
6. 6.26
7. 6.59

Query :: Look at this compound and give its reported pIC50. "c1ccc2oc(CN(CCCCCCCNc3c4c(nc5ccccc35)CCC4)Cc3cc4ccccc4o3)cc2c1"
Result :: 6.65

* * *

biological target: Amyloid-beta precursor protein (Homo sapiens, UniProt P05067); details: at 10 µM
Please respond with reported inhibition for every item in the list.
Numbers only, in %.

Worked cases, answers included:
{"Smiles code": "COc1cccc2cc(C(=O)NCCCCCCNc3c4c(nc5ccccc35)CCCCC4)oc12", "Result number": 18.7}
{"Smiles code": "COc1cccc2cc(CN(CCCCCCNc3c4c(nc5ccccc35)CCC4)Cc3cc4cccc(OC)c4o3)oc12", "Result number": 38.5}
{"Smiles code": "c1ccc2oc(CNCCCCCCCNc3c4c(nc5ccccc35)CCC4)cc2c1", "Result number": 76.2}
{"Smiles code": "COc1cccc2cc(C(=O)NCCCCCCNc3c4c(nc5ccccc35)CCC4)oc12", "Result number": 32.6}
{"Smiles code": "O=C(NCCCCCCNc1c2c(nc3ccccc13)CCCCC2)c1cc2ccccc2o1", "Result number": 24.2}

List the reported inhibition of each compound below.
1. O=C(NCCCCCCCNc1c2c(nc3ccccc13)CCCCC2)c1cc2ccccc2o1
2. COc1cccc2cc(CNCCCCCCNc3c4c(nc5ccccc35)CCCC4)oc12
3. c1ccc2oc(CN(CCCCCCCNc3c4c(nc5ccccc35)CCC4)Cc3cc4ccccc4o3)cc2c1
4. c1ccc2oc(CN(CCCCCCCNc3c4c(nc5ccccc35)CCCC4)Cc3cc4ccccc4o3)cc2c1
5. COc1cccc2cc(CN(CCCCCCNc3c4c(nc5ccccc35)CCCC4)Cc3cc4cccc(OC)c4o3)oc12
6. c1ccc2c(NCCCCCCCNc3c4c(nc5ccccc35)CCCC4)c3c(nc2c1)CCCC3

Result ::
[17.3, 52, 30.7, 44.5, 44.6, 50.1]
